Experiment: Hemolytic activity in human RBC at 400 ug/ml after 1 hr
Assay type: toxicity, cell-based, Erythrocyte
Settings: red blood cells (erythrocytes), at 400 µg/mL, read-out: Activity
Positions of bridges follow the written chain, without caps; N, C: chain ends. Non-standard residues stand in square brackets, D forms with d. Residues, ends and D or L forms follow the SMILES beside them. *: point of attachment. Phe(3-F) = N[C@@H](Cc1cccc(F)c1)C(=O)O; d(hhPhe) = N[C@H](CCCc1ccccc1)C(=O)O; Octanoyl = CCCCCCCC(=O)*; Dab = NCC[C@H](N)C(=O)O
readout_kind: hemolysis at 1 h, 400 ug/ml

Check out these entries, answers already filled in.
CCCCCCCC(=O)N[C@@H](CCN)C(=O)N[C@H](C(=O)N[C@@H](CCN)C(=O)N[C@H]1CCNC(=O)[C@H]([C@@H](C)O)NC(=O)[C@H](CCN)NC(=O)[C@H](CCN)NC(=O)[C@H](Cc2ccccc2)NC(=O)[C@@H](CCCc2ccccc2)NC(=O)[C@H](CCN)NC1=O)[C@@H](C)O (Octanoyl-[Dab]T[Dab][Dab][Dab][d(hhPhe)]F[Dab][Dab]T; lactam 4-C) : < 10%
CC(=O)N[C@H](Cc1ccc(F)cc1)C(=O)N[C@@H](CCN)C(=O)N[C@H](C(=O)N[C@@H](CCN)C(=O)N[C@H]1CCNC(=O)[C@H]([C@@H](C)O)NC(=O)[C@H](CCN)NC(=O)[C@H](CCN)NC(=O)[C@H](CC(C)C)NC(=O)[C@@H](Cc2ccccc2)NC(=O)[C@@H](CCN)NC1=O)[C@H](C)O : < 10%

Could you now look at the following molecule, please?
Please give the measured hemolysis at 1 h, 400 ug/ml for this molecule: CCCCCCCC(=O)N[C@@H](CCN)C(=O)N[C@H](C(=O)N[C@@H](CCN)C(=O)N[C@H]1CCNC(=O)[C@H]([C@@H](C)O)NC(=O)[C@H](CCN)NC(=O)[C@H](CCN)NC(=O)[C@H](Cc2cccc(F)c2)NC(=O)[C@@H](CC(C)C)NC(=O)[C@H](CCN)NC1=O)[C@@H](C)O (Octanoyl-[Dab]T[Dab][Dab][Dab][dL][Phe(3-F)][Dab][Dab]T; lactam 4-C)
< 10%
